Origin of measurements: the Human Domainome abundance scans (Beltran et al. 2025)

B1: Transitional endoplasmic reticulum ATPase, residues 26 to 106; numbered along this chain, P55072 (parent)
chain: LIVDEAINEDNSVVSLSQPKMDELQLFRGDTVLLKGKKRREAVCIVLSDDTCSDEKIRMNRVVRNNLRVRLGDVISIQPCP

# Variants of: B1
# Method Description: abundance fitness (aPCA) (normalised: wild type 0, dead -1); higher = more abundant; growth selection in yeast, the domain comes from the species named
# Condition Context: Homo sapiens
Response field class: enum, chosen by comparing abundance fitness against A: < -0.2; B: ≥ -0.2 and < -0.02; C: ≥ -0.02

1) D4H ... B
2) L71Y ... A
3) D54G ... B
4) I57G ... A
5) I2C ... B
6) K20P ... A
7) N11V ... B
8) V32G ... A

-- ask Which band does V14I fall in?
-- reply C

-- ask Which band does A6G fall in?
-- reply C

-- ask Which band does I2M fall in?
-- reply B

-- ask Which band does C52V fall in?
-- reply B

-- ask Which band does A6Q fall in?
-- reply C

-- ask Which band does C80G fall in?
-- reply C

-- ask Which band does P79Y fall in?
-- reply A

-- ask Which band does E55S fall in?
-- reply C

-- ask Which band does V62S fall in?
-- reply C

-- ask Which band does D22K fall in?
-- reply B

-- ask Which band does R40C fall in?
-- reply B

-- ask Which band does C52R fall in?
-- reply B

-- ask Which band does A6L fall in?
-- reply C

-- ask Which band does I77E fall in?
-- reply A

-- ask Which band does F27T fall in?
-- reply C

-- ask Which band does I7V fall in?
-- reply B

-- ask Which band does A42M fall in?
-- reply C

-- ask Which band does S17Y fall in?
-- reply A

-- ask Which band does R64M fall in?
-- reply B

-- ask Which band does K56T fall in?
-- reply C
